Origin of measurements: patent US20210246204A1

# Measured on: human Siglec-7 on primary human monocyte-derived dendritic cells (human, UniProt Q9Y286 19-467)
# Sequence (Q9Y286 19-467): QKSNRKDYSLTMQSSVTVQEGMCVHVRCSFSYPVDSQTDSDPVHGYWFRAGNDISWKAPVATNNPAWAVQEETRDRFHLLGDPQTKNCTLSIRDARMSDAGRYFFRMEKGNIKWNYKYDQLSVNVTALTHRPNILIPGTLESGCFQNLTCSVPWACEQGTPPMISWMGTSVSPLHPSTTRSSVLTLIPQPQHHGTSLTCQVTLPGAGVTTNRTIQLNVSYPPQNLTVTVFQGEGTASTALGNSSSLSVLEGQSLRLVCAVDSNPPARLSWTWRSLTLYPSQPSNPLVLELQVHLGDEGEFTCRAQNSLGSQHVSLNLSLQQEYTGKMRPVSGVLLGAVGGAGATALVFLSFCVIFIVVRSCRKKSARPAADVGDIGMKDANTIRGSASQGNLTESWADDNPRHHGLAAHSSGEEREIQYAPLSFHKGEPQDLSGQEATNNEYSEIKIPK
# Experiment description: cell-based or functional assay
// reported Receptor downregulation, (EC50) (pM) per item

{"Binder": "S7AB-H8.44.2 (antibody, V domains shown) VH: QVQLVQSGAEVKKPGASVKVSCKASGYAFTAAWMNWVRQARGQRLEWIGRIFPGLGHTNYAQKFQGRATLTEDTSTSTAYMELSSLRSEDTAVYYCARDYSDYYFDYWGQGTLVTVSS VL: DIQMTQSPSSLSASVGDRVTITCRGSQDINTYLNWYQQKPGKAPKLLIYYTSRLHSGVPSRFSGSGSGTDYTLTISSLQPEDFATYYCQQGNILPWTFGQGTKLEIK", "Receptor downregulation, (EC50) (pM)": 76.7}
{"Binder": "S7AB-H8.30.1 (antibody, V domains shown) VH: QVQLVQSGAEVKKPGASVKVSCKASGYAFTEAWMNWVRQAPGQRLEWIGRIFPGYGHTNYAQKFQGRATLTEDTSTSTAYMELSSLRSEDTAVYYCARDYSDYYFDYWGQGTLVTVSS VL: DIQMTQSPSSLSASVGDRVTITCRASQDANTYLNWYQQKPGKAPKLLIYYTSRLHSGVPSRFSGSGSGTDYTLTISSLQPEDFATYYCQQGNLLPWTFGQGTKLEIK", "Receptor downregulation, (EC50) (pM)": 134}
{"Binder": "S7AB-H8.25 (antibody, V domains shown) VH: QVQLVQSGAEVKKPGASVKVSCKASGYAFTEAWMNWVRQAPGQGLEWIGRIFPGYGHTNYAQKFQGRATLTEDTSTSTAYMELSSLRSEDTAVYYCARDYSDYYFDYWGQGTLVTVSS VL: DIQMTQSPSSLSASVGDRVTITCRASEDINTYLNWYQQKPGKAPKLLIYYTSRLHSGVPSRFSGSGSGTDYTLTISSLQPEDFATYYCQQGGTLPWTFGQGTKLEIK", "Receptor downregulation, (EC50) (pM)": 189}
{"Binder": "S7AB-H8.10 (antibody, V domains shown) VH: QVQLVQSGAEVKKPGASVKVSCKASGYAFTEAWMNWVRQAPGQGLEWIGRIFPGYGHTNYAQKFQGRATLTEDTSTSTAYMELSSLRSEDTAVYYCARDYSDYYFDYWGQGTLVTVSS VL: DIQMTQSPSSLSASVGDRVTITCRGSQDINTYLNWYQQKPGKAPKLLIYYTSRLHSGVPSRFSGSGSGTDYTLTISSLQPEDFATYYCQQGNTKPWTFGQGTKLEIK", "Receptor downregulation, (EC50) (pM)": 197}
{"Binder": "S7AB-H8.34 (antibody, V domains shown) VH: QVQLVQSGAEVKKPGASVKVSCKASGYAFTAAWMNWVRQAPGQGLEWIGRIFPGLGHTNYAQKFQGRATLTEDTSTSTAYMELSSLRSEDTAVYYCARDYSDYYFDYWGQGTLVTVSS VL: DIQMTQSPSSLSASVGDRVTITCRGSQDINTYLNWYQQKPGKAPKLLIYYTSRLHSGVPSRFSGSGSGTDYTLTISSLQPEDFATYYCQQGGTLPWTFGQGTKLEIK", "Receptor downregulation, (EC50) (pM)": 118}
{"Binder": "S7AB-H8.37 (antibody, V domains shown) VH: QVQLVQSGAEVKKPGASVKVSCKASGYAFTMAWMNWVRQAPGQGLEWIGRIFPGYGHTNYAQKFQGRATLTEDTSTSTAYMELSSLRSEDTAVYYCARDYSDYYFDYWGQGTLVTVSS VL: DIQMTQSPSSLSASVGDRVTITCRGSQDINTYLNWYQQKPGKAPKLLIYYTSRLHSGVPSRFSGSGSGTDYTLTISSLQPEDFATYYCQQGNVLPWTFGQGTKLEIK", "Receptor downregulation, (EC50) (pM)": 71.4}
{"Binder": "S7AB-H8.28 (antibody, V domains shown) VH: QVQLVQSGAEVKKPGASVKVSCKASGYAFTGYWMNWVRQAPGQGLEWIGRIFPGLGHTNYAQKFQGRATLTEDTSTSTAYMELSSLRSEDTAVYYCARDYSDYYFDYWGQGTLVTVSS VL: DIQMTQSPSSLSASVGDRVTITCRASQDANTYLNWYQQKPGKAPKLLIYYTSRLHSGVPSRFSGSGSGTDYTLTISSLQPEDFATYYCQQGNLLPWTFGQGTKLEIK", "Receptor downregulation, (EC50) (pM)": 74.6}
{"Binder": "S7AB-H8.2 (antibody, V domains shown) VH: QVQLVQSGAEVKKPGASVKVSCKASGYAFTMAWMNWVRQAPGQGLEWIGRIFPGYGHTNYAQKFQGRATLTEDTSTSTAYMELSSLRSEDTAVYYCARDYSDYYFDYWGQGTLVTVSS VL: DIQMTQSPSSLSASVGDRVTITCRGSQDINTYLNWYQQKPGKAPKLLIYYTSRLHSGVPSRFSGSGSGTDYTLTISSLQPEDFATYYCQQGNLLPWTFGQGTKLEIK", "Receptor downregulation, (EC50) (pM)": 87}
{"Binder": "S7AB-H8.42 (antibody, V domains shown) VH: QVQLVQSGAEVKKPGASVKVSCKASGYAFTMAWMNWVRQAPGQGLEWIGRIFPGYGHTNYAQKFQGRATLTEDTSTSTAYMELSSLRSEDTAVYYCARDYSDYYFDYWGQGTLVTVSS VL: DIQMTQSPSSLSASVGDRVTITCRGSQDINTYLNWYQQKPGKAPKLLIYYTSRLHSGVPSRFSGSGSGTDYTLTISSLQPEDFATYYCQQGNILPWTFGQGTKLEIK", "Receptor downregulation, (EC50) (pM)": 62.6}
{"Binder": "S7AB-H8.29.1 (antibody, V domains shown) VH: QVQLVQSGAEVKKPGASVKVSCKASGYAFTAAWMNWVRQAPGQRLEWIGRIFPGLGHTNYAQKFQGRATLTEDTSTSTAYMELSSLRSEDTAVYYCARDYSDYYFDYWGQGTLVTVSS VL: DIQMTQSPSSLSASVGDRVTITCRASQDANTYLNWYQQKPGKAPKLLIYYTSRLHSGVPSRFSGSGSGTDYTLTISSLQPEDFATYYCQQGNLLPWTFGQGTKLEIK", "Receptor downregulation, (EC50) (pM)": 53.2}
